Target Or System: specific ANP receptor sites on BASM or BAE cells (Bos taurus)
Construct: specific receptor sites on BASM or BAE cells; endogenous in cells; host or cells: cultured BASM and BAE cells
Experiment: Competitive displacement receptor binding of (125I)-rANP(126-150) on cultured cells
Parameters: species or system bovine
Test Context: concentration of unlabeled peptide displacing 50% of maximal binding of 0.5 nM (125I)-rANP(126-150); BASM or BAE cells
Text: Analogous "competitive displacement" receptor binding assays are considered commonplace in the art for examining specific ligand-receptor interactions. Assuming these ANP analogs act at one or more ANP receptor sites, then increased receptor affinity should reflect increased biological potency.
Where a SMILES comes first, the peptide text is derived from it. [ ]: non-standard residue; d: D form. The star is where a group is joined. Acetyl(2-naphthyloxy) = O=C(COc1ccc2ccccc2c1)*; Inp = O=C(O)C1CCNCC1
Observable: Ki(app)

| Compound | Observable | Measured Result |
| --- | --- | --- |
| CC[C@H](C)[C@H](NC(=O)[C@H](CCCNC(=N)N)NC(=O)[C@@H](CC(=O)O)NC(=O)[C@@H](NC(=O)[C@H](CCCNC(=N)N)NC(=O)CNC(=O)CNC(=O)[C@H](Cc1ccccc1)NC(=O)[C@H](C)N)[C@@H](C)CC)C(=O)NCC(=O)N[C@@H](C)C(N)=O [AP303, A--F--G--G--R--I--D^ --R--I--G--A--NH2] (H-AFGGRI[dD]RIGA-NH2) | Ki(app) | > 200 nM |

Challenge: API: value(readout= Ki(app), system= specific ANP receptor sites on BASM or BAE cells (Bos taurus), query= CC[C@H](C)[C@H](NC(=O)[C@H](CCCNC(=N)N)NC(=O)[C@H](CC(=O)O)NC(=O)[C@@H](NC(=O)[C@H](CCCNC(=N)N)NC(=O)C1CCN(C(=O)COc2ccc3ccccc3c2)CC1)[C@@H](C)CC)C(N)=O [AP539] ({Acetyl(2-naphthyloxy)-Inp}-RIDRI-NH2) )
Response given: 9.1 nM

----------
Target Or System: specific ANP receptor sites on BASM or BAE cells (Bos taurus)
Construct: specific receptor sites on BASM or BAE cells; endogenous in cells; host or cells: cultured BASM and BAE cells
Experiment: Competitive displacement receptor binding of (125I)-rANP(126-150) on cultured cells
Parameters: species or system bovine
Test Context: concentration of unlabeled peptide displacing 50% of maximal binding of 0.5 nM (125I)-rANP(126-150); BASM or BAE cells
Where no end group is shown, it is not given here.
The following substances are listed with their measured Ki(app) values.
State just the number; it will be interpreted in nM.

| Substance | Target Or System | Measured Result |
| --- | --- | --- |
| AFGGRIDRIG-NH2 [AP102, A--F--G--G--R--I--D--R--I--G--NH2] | specific ANP receptor sites on BASM or BAE cells (Bos taurus) | 14.04 |
| AFGGRIDRIGY-NH2 [AP176, A--F--G--G--R--I--D--R--I--G--Y--NH2] | specific ANP receptor sites on BASM or BAE cells (Bos taurus) | 6.65 |
| FGGRIDRIGAA-NH2 [AP104, F--G--G--R--I--D--R--I--G--A--A--NH2] | specific ANP receptor sites on BASM or BAE cells (Bos taurus) | 2.50 |

Okay, now this substance:
Challenge: Which Ki(app) value belongs to YAFGGRIDRIGA-NH2 [AP175, Y--A--F--G--G--R--I--D--R--I--G--A--NH2] ?
Response given: 5.94

----------
The following molecules are listed with their measured Ki(app) values.
Target Or System: specific ANP receptor sites on BASM or BAE cells (Bos taurus)
Construct: specific receptor sites on BASM or BAE cells; endogenous in cells; host or cells: cultured BASM and BAE cells
Experiment: Competitive displacement receptor binding of (125I)-rANP(126-150) on cultured cells
Parameters: species or system bovine
Test Context: concentration of unlabeled peptide displacing 50% of maximal binding of 0.5 nM (125I)-rANP(126-150); BASM or BAE cells
Where a SMILES comes first, the peptide text is derived from it. [ ]: non-standard residue; d: D form. The star is where a group is joined. Acetyl(2-naphthyl) = O=C(Cc1ccc2ccccc2c1)*; Cit = NC(=O)NCCC[C@H](N)C(=O)O
State just the number; it will be interpreted in nM.

Challenge: Which Ki(app) value belongs to CC[C@H](C)[C@H](NC(=O)[C@H](CCCNC(N)=O)NC(=O)[C@H](CC(=O)O)NC(=O)[C@@H](NC(=O)[C@H](CCCNC(=N)N)NC(=O)CNC(=O)CNC(=O)Cc1ccc2ccccc2c1)[C@@H](C)CC)C(N)=O [AP593, (2-NA)--G--G--R--I--D--Cit--I--NH2] ({Acetyl(2-naphthyl)}-GGRID[Cit]I-NH2) ?
Response given: 55.0

----------
Target Or System: specific ANP receptor sites on BASM or BAE cells (Bos taurus, UniProt P10730)
Construct: specific receptor sites on BASM or BAE cells; endogenous in cells; host or cells: cultured BASM and BAE cells
Sequence (P10730 42-537): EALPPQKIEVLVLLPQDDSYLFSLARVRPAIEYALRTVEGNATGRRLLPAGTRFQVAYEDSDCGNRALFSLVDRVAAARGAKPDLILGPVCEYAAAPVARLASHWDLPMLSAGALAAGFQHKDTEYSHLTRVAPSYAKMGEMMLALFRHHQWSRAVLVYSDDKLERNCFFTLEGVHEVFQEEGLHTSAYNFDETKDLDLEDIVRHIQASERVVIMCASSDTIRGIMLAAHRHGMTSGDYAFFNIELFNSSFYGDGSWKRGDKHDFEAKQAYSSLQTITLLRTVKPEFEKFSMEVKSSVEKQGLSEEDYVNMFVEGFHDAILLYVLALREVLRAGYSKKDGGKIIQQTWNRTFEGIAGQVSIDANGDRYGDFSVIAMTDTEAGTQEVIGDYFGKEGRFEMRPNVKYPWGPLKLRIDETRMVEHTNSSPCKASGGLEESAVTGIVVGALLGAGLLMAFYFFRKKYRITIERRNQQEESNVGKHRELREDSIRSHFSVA
Experiment: Competitive displacement receptor binding of (125I)-rANP(126-150) on cultured cells
Design: species or system bovine
Test Context: concentration of unlabeled peptide displacing 50% of maximal binding of 0.5 nM (125I)-rANP(126-150); BASM or BAE cells
Where a SMILES comes first, the peptide text is derived from it. [ ]: non-standard residue; d: D form. The star is where a group is joined. Propanoyl(3,3-Ph2) = O=C(CC(c1ccccc1)c1ccccc1)*; Acetyl(2-naphthyloxy) = O=C(COc1ccc2ccccc2c1)*; Acetyl(2-naphthyl) = O=C(Cc1ccc2ccccc2c1)*; 2Naphthoyl = O=C(c1ccc2ccccc2c1)*; NMeI = CC[C@H](C)[C@H](NC)C(=O)O; 4Amb = NCc1ccc(C(=O)O)cc1; NHiBu = CC(C)CN*
Binary label based on Ki(app) with cut-off 50 nM: below gives YES, not below gives NO.

Known results for compounds:
| Compound | Target Or System | Class Assignment |
| --- | --- | --- |
| CC[C@H](C)[C@H](NC(=O)[C@H](CCCNC(=N)N)NC(=O)CNC(=O)CNC(=O)Cc1ccc2ccccc2c1)C(=O)N[C@@H](CC(=O)O)C(=O)N[C@@H](CCCNC(=N)N)C(=O)NCC(C)C [AP510] ({Acetyl(2-naphthyl)}-GGRIDR-NHiBu) | specific ANP receptor sites on BASM or BAE cells (Bos taurus, UniProt P10730) | NO |
| CCNC(=O)CNC(=O)[C@H]([C@@H](C)CC)N(C)C(=O)[C@H](CCCNC(=N)N)NC(=O)[C@H](CC(=O)O)NC(=O)[C@@H](NC(=O)[C@H](CCCNC(=N)N)NC(=O)CNC(=O)CNC(=O)Cc1ccc2ccccc2c1)[C@@H](C)CC [AP529] ({Acetyl(2-naphthyl)}-GGRIDR[NMeI]G-NHEt) | specific ANP receptor sites on BASM or BAE cells (Bos taurus, UniProt P10730) | NO |
| CC[C@H](C)[C@H](NC(=O)[C@H](CCCNC(=N)N)NC(=O)[C@H](CC(=O)O)NC(=O)[C@@H](NC(=O)[C@H](CCCNC(=N)N)NC(=O)CNC(=O)CNC(=O)CC(c1ccccc1)c1ccccc1)[C@@H](C)CC)C(=O)NCC(=O)N[C@@H](C)C(N)=O [AP331, (3-DPP)--G--G--R--I--D--R--I--G--A--NH2] ({Propanoyl(3,3-Ph2)}-GGRIDRIGA-NH2) | specific ANP receptor sites on BASM or BAE cells (Bos taurus, UniProt P10730) | YES |

Challenge: Does this compound meet the criterion Ki(app) < 50 nM? CC[C@H](C)[C@H](NC(=O)[C@H](CCCNC(=N)N)NC(=O)[C@H](CC(=O)O)NC(=O)[C@@H](NC(=O)[C@H](CCCNC(=N)N)NC(=O)c1ccc(CNC(=O)c2ccc3ccccc3c2)cc1)[C@@H](C)CC)C(N)=O [AP795] ({2Naphthoyl-4Amb}-RIDRI-NH2)
Response given: YES

Challenge: For CC[C@H](C)[C@H](NC(=O)[C@H](CCCNC(=N)N)NC(=O)[C@H](CC(=O)O)NC(=O)[C@@H](NC(=O)[C@H](CCCNC(=N)N)NC(=O)CNC(=O)[C@@H](C)NC(=O)COc1ccc2ccccc2c1)[C@@H](C)CC)C(N)=O [AP322, (2-NOA)--A^ --G--R--I--D--R--I--NH2] ({Acetyl(2-naphthyloxy)}-[dA]GRIDRI-NH2) then?
Response given: NO
